# Test description: Cytotoxicity against human QSG7701 cells assessed as growth inhibition at 50 uM after 48 hrs by MTT assay relative to control
# Format: cell-based
# Conditions: read-out: GI
Assignment: determine reported inhibition at 48 h, 50 µM for the given compounds.
Give bare numbers, in %.

Here are 5 compounds together with their reported answers.
Look up inhibition at 48 h, 50 µM: `O=C(Cc1cccc2ccccc12)NCCNC(=O)C1(NC(=O)c2cc(C(F)(F)F)cc(C(F)(F)F)c2)CCCC1` 0

Entry `CCc1ccc(C(=O)NC2(C(=O)NCCNC(=O)Cc3cccc4ccccc34)CCN(Cc3ccccc3)CC2)cc1` please 90

Record: `COc1cc(OC)cc(C(=O)NC2(C(=O)NCCNC(=O)Cc3cccc4ccccc34)CCN(Cc3ccccc3)CC2)c1` 78.6

Do the same for `O=C(Cc1cccc2ccccc12)NCCNC(=O)C1(NC(=O)CCc2cccc(O)c2)CCN(Cc2ccccc2)CC1` please 31.9

Next compound: `Cc1ccc(NC(=O)c2ccc(CN3CCN(C)CC3)cc2)cc1Nc1nccc(-c2cccnc2)n1` 21.8

Each compound below has a reported value. Please supply its inhibition at 48 h, 50 µM.
1. O=C(NCCNS(=O)(=O)c1cccc2cnccc12)C1CCCCC1
2. O=C(NCCNS(=O)(=O)c1cccc2cnccc12)c1cccc(O)c1
3. O=C(Cc1ccc(F)cc1)NCCNC(=O)C1(NC(=O)c2ccc(C(F)(F)F)nc2)CCN(Cc2ccccc2)CC1
4. O=C(Cc1cccc2ccccc12)NCCNC(=O)C1(NC(=O)c2ccc(C(F)(F)F)nc2)CCCC1

[15.9, 5.9, 19.7, 24.7]

Which inhibition at 48 h, 50 µM value is on record for `O=C(Cc1cccc2ccccc12)NCCNC(=O)C1(NC(=O)c2ccc(C(F)(F)F)nc2)CCCCC1` ? 24
